assay: Binding affinity to poly(dA-dT)2 (unknown origin) assessed as spectral changes at pH7 by UV/vis spectra
Listed here: items and their measured Activity.

Example molecules with recorded Activity:
Ask | Quick one: Activity for `N=C(N)c1ccc(-c2nc3ccc(N)cc3s2)cc1` ?
Reply | 37.5%

Ask | Quick one: Activity for `N=C(N)c1ccc2nc(-c3ccc(N)cc3)sc2c1` ?
Reply | 39.8%

Ask | Quick one: Activity for `Nc1ccc(-c2nc3ccc(C4=NCCN4)cc3s2)cc1` ?
Reply | 42.5%

Further cases:
Ask | Quick one: Activity for `Nc1ccc2nc(-c3ccc(C4=NCCN4)cc3)sc2c1` ?
Reply | 41.1%
